Assignment: determine reported Plant response rating, Ryegrass, Italian for the given compounds.
Tested on: Ryegrass, Italian (Italian ryegrass, Lolium multiflorum)
Assay overview: Test A1 postemergence, Ryegrass, Italian
Assay type: in vivo
Protocol conditions: Postemergence, 125 g ai/ha; 0 to 100 scale (0 no effect, 100 complete control); 10 days

For orientation, consider the following solved cases.
Compound: Cc1cc(C)c(N(S(=O)(=O)C(F)(F)F)S(=O)(=O)C(F)(F)F)cc1N1CCC2(CCC(C(F)(F)F)CC2)C1=O (stereo not shown)
Assay system: Ryegrass, Italian (Italian ryegrass, Lolium multiflorum)
Plant response rating, Ryegrass, Italian: 70
//
Compound: Cc1cc(Cl)c(NS(=O)(=O)C(F)(F)F)cc1N1CC2(CCCCC2)OC1=O
Assay system: Ryegrass, Italian (Italian ryegrass, Lolium multiflorum)
Plant response rating, Ryegrass, Italian: 40
//
Compound: Cc1cc(C)c(C2=NOC(C(C)C)C2)cc1NS(=O)(=O)C(F)(F)F (stereo not shown)
Assay system: Ryegrass, Italian (Italian ryegrass, Lolium multiflorum)
Plant response rating, Ryegrass, Italian: 0

Consider the record given below.
// lookup Plant response rating, Ryegrass, Italian for Cc1cc(C)c(N2CCC3(CCC(C)CC3)C2=O)cc1NS(=O)(=O)C(F)(F)F (stereo not shown)
0

Source listed as patent US20230278972A1.
